Experiment: NCI Yeast Anticancer Drug Screen. Data for the rad50 strain (AID 155);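 further: 0% = growth of vehicle-only cultures of the same strain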
Details: S. cerevisiae rad50 strain growth inhibition; at 50.0 µM; stronger effect = higher value
About 79,000 compounds went through this panel and 15% of them were active in at least one assay; those are over-represented in the sample as a whole.
Value Kind: growth inhibition (%)

{"columns": ["Compound", "Quantity Unit", "Recorded Measurement"],
 "data": [
  ["O=C1NCN(c2ccccc2)C12CCN(Cc1ccccc1)CC2", "%", -4.6],
  ["CN(C(=O)CCl)c1ccccc1", "%", 15.3],
  ["Cc1ccc2c(c1)C(=S)N1CSCC1c1nncn1-2 (centres undefined)", "%", 30.6],
  ["O=C(c1ccccc1)P(C(=O)c1ccccc1)C(=O)c1ccccc1", "%", 10.9],
  ["O=C(Nc1cc(S(=O)(=O)O)cc2cc(S(=O)(=O)O)c(N=Nc3ccc([As](=O)(O)O)cc3)c(O)c12)c1ccc([N+](=O)[O-])cc1", "%", 12.7],
  ["[Cl][Ni][Cl].[NH-]CCN1CC1.[NH-]CCN1CC1", "%", -9.75],
  ["COc1cc(C2c3[nH]c4ccccc4c3C[C@H]3COC(=O)N23)cc(OC)c1OC (some centres undefined)", "%", 62.6],
  ["O=NNc1cccnc1", "%", -1.05],
  ["[C-]#[O+].[C-]#[O+].[C-]#[O+].[C-]#[O+].[Fe].[N-]=C(C(F)(F)F)C(F)(F)F", "%", -16.4],
  ["C=C(C)[C@]12CC(C)C34OC(/C=C\\C=C\\CCCCCCCCC)(O[C@@H]1[C@@H]3[C@@H]1O[C@]1(CO)[C@@H](O)[C@]1(O)C(=O)C(C)=C[C@@H]41)O2 (some centres undefined)", "%", 74.4],
  ["O=P(O)(O)SP(=O)(O)O.[Mn]", "%", -14.7],
  ["O=[N+]([O-])c1ccc(Cl)c(OCCCOc2ccc(S(=O)(=O)F)cc2)c1", "%", -8.7],
  ["O=c1c2ccccc2nc(-c2ccccc2Cl)n1-c1nnc(C(F)(F)F)s1", "%", -13.8],
  ["[Cl][Rh]([Cl])([Cl])[Cl].[NH-]CC[NH-]", "%", 17.2],
  ["COc1cc(OC)c(SC)cc1CC(C)N (centres undefined)", "%", -19.2],
  ["O=C1CN2CCC1CC2", "%", 10.3],
  ["O=S(=O)(O)O.[In]", "%", 22.2],
  ["COc1ccc(CCl)cc1CCl", "%", -24.2],
  ["CCOC(=O)CN(Cc1ccccc1)Cc1c(C(=O)c2ccccc2)c2ccccc2n1C(=O)c1ccccc1", "%", 3.75],
  ["Oc1c(Cl)cccc1Cl", "%", -22.4],
  ["O=C1NC(=O)C2(c3ccccc3)CCN1C2=O (centres undefined)", "%", 1.35],
  ["CC1CS1 (centres undefined)", "%", -5.7],
  ["O=c1oc2ccccc2c(O)c1C(c1ccc2c(c1)OCO2)c1c(O)c2ccccc2oc1=O", "%", -5.8],
  ["O=P(O)(O)CCc1ccccc1", "%", -3.85]
]}
